- Tested on: horse erythrocytes
- assay-protocol: Hemolytic activity (hemoglobin release from erythrocytes)
- Assay type: cell-based
- particulars: D-amino acid lipopeptides, 150 µM, TRIS buffer pH 7.2, 1 h, 37 °C, relative to melittin, ± confidence interval (α = 0.05)
- Procedure: The hemolytic activity of the compounds was evaluated by determining hemoglobin release from erythrocyte suspensions of horse blood (5% vol/vol) (Oxoid) as previously described. […] Then, the tubes were centrifuged at 3500 g for 10 min, 80 μL aliquots of the supernatant transferred to 100-well microplates (Bioscreen), diluted with 80 μL water, and the absorbance measured at 540 nm (Bioscreen). […]
Where a SMILES comes first, the peptide text is derived from it. [ ]: non-standard residue; d: D form. The star is where a group is joined. Lauroyl = CCCCCCCCCCCC(=O)*
measured-parameter: Hemolysis (%) 150 µM
Field: numeric (%). Do not append units.

What is its Hemolysis (%) 150 µM for horse erythrocytes? Entry: CCCCCCCCCCCC(=O)NCCCC[C@H](NC(=O)[C@H](CCCCN)NC(=O)[C@H](CCCCN)NC(C)=O)C(=O)N[C@H](Cc1ccccc1)C(=O)N[C@@H](CCCCN)C(=O)N[C@@H](CCCCN)C(=O)N[C@H](C(=O)N[C@@H](CC(C)C)C(=O)N[C@@H](CCCCN)C(=O)N[C@@H](Cc1ccc(O)cc1)C(=O)N[C@@H](CC(C)C)C(N)=O)[C@@H](C)CC [BP500, Ac-KKK(COC11H23)fKKILKYL-NH2] (Ac-KKK(Lauroyl)[dF]KKILKYL-NH2)
71

###

- System: horse erythrocytes
- assay-protocol: Hemolytic activity (hemoglobin release from erythrocytes)
- Type: cell-based
- particulars: D-amino acid lipopeptides, 250 µM, TRIS buffer pH 7.2, 1 h, 37 °C, relative to melittin, ± confidence interval (α = 0.05)
Where a SMILES comes first, the peptide text is derived from it. [ ]: non-standard residue; d: D form. The star is where a group is joined. Lauroyl = CCCCCCCCCCCC(=O)*
measured-parameter: Hemolysis (%) 250 µM
Field: numeric (%). Do not append units.

1. CCCCCCCCCCCC(=O)NCCCC[C@H](NC(=O)[C@H](Cc1ccc(O)cc1)NC(=O)[C@H](CCCCN)NC(=O)[C@H](CC(C)C)NC(=O)[C@@H](NC(=O)[C@H](CCCCN)NC(=O)[C@H](CCCCN)NC(=O)[C@@H](Cc1ccccc1)NC(=O)[C@H](CC(C)C)NC(=O)[C@H](CCCCN)NC(=O)[C@H](CCCCN)NC(C)=O)[C@@H](C)CC)C(N)=O [BP476, Ac-KKLfKKILKYK(COC11H23)-NH2] (Ac-KKL[dF]KKILKYK(Lauroyl)-NH2)	94

Then this compound:
Query: Hemolysis (%) 250 µM; subject: CCCCCCCCCCCC(=O)NCCCC[C@H](NC(=O)[C@H](CCCCN)NC(=O)[C@H](CCCCN)NC(C)=O)C(=O)N[C@H](Cc1ccccc1)C(=O)N[C@@H](CCCCN)C(=O)N[C@@H](CCCCN)C(=O)N[C@H](C(=O)N[C@@H](CC(C)C)C(=O)N[C@@H](CCCCN)C(=O)N[C@@H](Cc1ccc(O)cc1)C(=O)N[C@@H](CC(C)C)C(N)=O)[C@@H](C)CC [BP500, Ac-KKK(COC11H23)fKKILKYL-NH2] (Ac-KKK(Lauroyl)[dF]KKILKYL-NH2)
71

Reference for the values: paper PMC8233901
